Origin of measurements: PubChem BioAssay (NCI)

Assay protocol: NCI Yeast Anticancer Drug Screen. Data for the rad50 strain (AID 155);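 note: 0% = growth of vehicle-only cultures of the same strain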
Conditions: S. cerevisiae rad50 strain growth inhibition; at 50.0 µM (retest, dose inferred, filed as 5.0)
About 79,000 compounds went through this panel and 15% of them were active in at least one assay; those are over-represented in the sample as a whole. Activity calls are given as the source filed them. Cut-off read from the data, not from the text of the source: active = growth inhibition above about 70%; inactive = the rest.
The reply should name one outcome from 1 (active), -1 (inactive)

Observe how each entry below is paired with its result.
CC(C)(C)c1cc(C(=O)[O-])c([OH2+])c(C(C)(C)C)c1.CC(C)(C)c1cc(C(=O)[O-])c([OH2+])c(C(C)(C)C)c1.[Mn+2] = -1
Clc1ccc(CN2COc3c(ccc4cccnc34)C2)cc1 = -1
C#CCn1cnc2c(N)ncnc21 = -1
CSc1cccc(N2C(=O)C=CC2=O)c1 = -1
O=C1CN(c2cccc(Cl)c2)C(=O)CN1/N=C/c1ccc[nH]1 = -1
CC1(C(Cl)(Cl)Cl)C=CC(=NO)C=C1 (stereo unspecified) = -1
CCCCN(CCCC)CC(O)c1ccc(CCc2ccccc2)cc1 (stereo unspecified) = 1
CCCCCCCCCCC(=O)CC(=O)c1c(O)cccc1O = -1
C=CC(=O)Nc1ccccc1CC(c1c[nH]c2ccccc12)c1c[nH]c2ccccc12 = -1
Cc1cccc(C)c1NC(=O)CSC(N)=O = -1

Now for a further molecule.
Q: Please let me know the test result on file for O=c1ccc2c(COc3ccc(Cl)cc3Cl)c3ccc(O)cc3oc-2c1 .
A: -1

====

Assay protocol: NCI Yeast Anticancer Drug Screen. Data for the mlh1 rad18 strain (AID 175)
Conditions: S. cerevisiae mlh1 rad18 strain growth inhibition; at 5.0 µM (retest, dose inferred, filed as 0.5)
Compounds without any hit were thinned out: in the full panel of roughly 79,000, 15% have a hit. The source made the active and inactive calls. Rule as the data show it: active = growth inhibition above about 70%; inactive = the rest.
The reply should name one outcome from active, inactive

COC(=O)c1ccc(C)cc1C1CN=NC12Cc1cc(C)ccc1C2=O (stereo unspecified) = inactive
C[n+]1c(-c2cccc(OCCCCCCCCCCOc3cccc(-c4c5cc(N)ccc5c5ccc(N)cc5[n+]4C)c3)c2)c2cc(N)ccc2c2ccc(N)cc21 = active
Oc1ccc(Cc2ccccc2)cc1Cl = inactive
Nc1ncnc2c1c(-c1ccccc1)cn2-c1ccc(Br)cc1 = inactive

Q: Please let me know the test result on file for S=C1NC2=C(CSC/C2=C\c2cccc(Br)c2)C(c2cccc(Br)c2)N1 (stereo unspecified) .
A: inactive

Q: Please let me know the test result on file for CCCCCCOC(=O)COc1ccccc1 .
A: inactive

Q: Please let me know the test result on file for C[n+]1c(/C=C\c2ccccc2)sc2ccccc21 .
A: inactive

Q: Please let me know the test result on file for Oc1cccc(NCSc2ccc(Cl)cc2)c1 .
A: inactive

Q: Please let me know the test result on file for CCCCCCCCCCOC(=O)Nc1ccc(C)c(NC(=O)OCCCCCCCCCC)c1 .
A: inactive

Q: Please let me know the test result on file for COC(=O)CS(=O)(=O)CCS(=O)(=O)CC(=O)OC .
A: inactive

Q: Please let me know the test result on file for O=C(O)/C(=C\c1cc(I)c(O)c(I)c1)c1ccc(I)cc1 .
A: inactive

====

Assay protocol: NCI Yeast Anticancer Drug Screen. Data for the bub3 strain (AID 167)
Conditions: S. cerevisiae bub3 mutant strain, at 5.0 µM (retest, dose inferred, filed as 0.5), active compounds read high
The panel holds about 79,000 compounds, 15% with a hit somewhere; the sample as a whole holds those more often.
The molecules listed here are annotated with their growth inhibition.
# output: bare number, implied unit %

Here are 6 molecules together with their reported answers.
CN(C)Cc1ccc2c(c1)c1c(n2Cc2ccccc2)CCCC1 = -8
Nc1ccc(O)c2ccccc12 = 7
O=C(Nc1ccccc1Cl)c1cccnc1 = -63
Nc1ncc(C(=O)c2ccccc2)cc1[N+](=O)[O-] = -76
O=C(O)/C=C/C(=O)c1ccccc1 = -6
CC(C)C1=CC(=O)C2=C(CCC3C(C)(C(=O)O)CCC[C@]23C)C1=O (stereo not given in full) = 54

Q: Name the recorded growth inhibition for CCC(C(=O)CCN(C)C)(c1ccccc1)c1ccccc1 .
A: 59

Q: Name the recorded growth inhibition for COC(=O)NC1CCCCCCCCCCC1I (stereo not given) .
A: -5

Q: Name the recorded growth inhibition for CN(C)CCCNc1cc(/C=C/c2ccc([N+](=O)[O-])cc2)nc2ccccc12 .
A: -6

Q: Name the recorded growth inhibition for Cc1c(C)c(C)c(C(=O)c2ccccc2C(=O)NCCSC(C)(C)C)c(C)c1C .
A: 44

Q: Name the recorded growth inhibition for CCCCCCCCCc1cccc(N2C(N)=NC(N)=NC2(C)C)c1 .
A: 98

Q: Name the recorded growth inhibition for O=C(Nc1cccc(C(F)(F)F)c1)O/N=C(/Cl)CCl .
A: -38

Q: Name the recorded growth inhibition for CC1=C/C(=C\c2ccc([N+](=O)[O-])o2)C(=O)O1 .
A: 49

Q: Name the recorded growth inhibition for [Cl][Pt+2][Cl].[NH-]CC1(C[NH-])CCCC1 .
A: 19

Q: Name the recorded growth inhibition for Cc1ccc(-n2c(CSc3ccc(Cl)cc3)nnc2SCc2nc3ccccc3[nH]2)cc1 .
A: 1

Q: Name the recorded growth inhibition for NCC1CCNCC1 .
A: -5

Q: Name the recorded growth inhibition for CC1(C)CC(=O)C(c2ccccc2[N+](=O)[O-])=C(O)C1 .
A: -6

Q: Name the recorded growth inhibition for O=C(O)c1ccc2ccccc2c1C(=O)c1cccc2ccccc12 .
A: 0

Q: Name the recorded growth inhibition for O=c1c2cccc3cccc(c4oc5c6cccc7cccc(c(=O)c5c14)c76)c32 .
A: 37

Q: Name the recorded growth inhibition for O=C1c2ccccc2-c2cc(S)c([N+](=O)[O-])cc21 .
A: 4

====

Assay protocol: NCI Yeast Anticancer Drug Screen. Data for the cln2 rad14 strain (AID 165);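 note: 0% = growth equal to vehicle treated cultures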
Conditions: S. cerevisiae cln2 rad14 strain, at 50.0 µM
Compounds without any hit were thinned out: in the full panel of roughly 79,000, 15% have a hit. Activity calls are given as the source filed them. Cut-off read from the data, not from the text of the source: active = growth inhibition above about 70%; inactive = the rest.
The reply should name one outcome from active, inactive

Observe how each entry below is paired with its result.
CC1/C=C/C=C/CC/C=C/C=C/C=C/C=C/C(OC2OC(C)C(O)C(N)C2O)CC2OC(CC(O)C(O)CCC(O)CC(O)CC(O)CC(=O)OC(C)C(C)C1O)CC(O)C2C(=O)O (stereo not drawn) = active
O=C(O)C(Cc1cc(I)c(O)c(I)c1)c1ccccc1 (stereo not drawn) = inactive
CC(C)[C@@H]1CC[C@@H](C)C[C@H]1OC(=O)NN = inactive
O=C(Nc1ncnc2c1ncn2C1CC(O)C(CO)O1)c1ccccc1 (stereo not drawn) = inactive
CSc1c(C)n([O-])c2cc(Cl)c(Cl)cc2[n+]1=O = inactive
COC12C=CC(CC1)c1c2c(O)c2ncccc2c1O (stereo not drawn) = inactive
Cc1c2c(c(C)c3c1sc1ccccc13)CCN=C2 = active
O=C1CN(CCN2CCOCC2)CC(=O)N2CCCCN12 = inactive

Q: Please let me know the test result on file for N#CC1C2CCC3(CC2CCN1C(=O)c1ccccc1)OCCO3 (stereo not drawn) .
A: active

Q: Please let me know the test result on file for CCOC(=O)c1ccccc1NC(OCC)C(=O)c1ccccc1 (stereo not drawn) (tested in a mixture with another compound) .
A: inactive

Q: Please let me know the test result on file for Cc1c(N=Nc2ccc(Br)cc2)c(-c2ccccc2)nn1C(=S)S .
A: inactive

Q: Please let me know the test result on file for Cc1n[n+]([O-])c(C)cc1[N+](=O)[O-] .
A: active

Q: Please let me know the test result on file for OC1(c2ccccc2)c2ccccc2Sc2ccccc21 .
A: active

Q: Please let me know the test result on file for O=C1c2ccccc2CN1Cc1ccc(Cl)c(Cl)c1 .
A: inactive

====

Assay protocol: NCI Yeast Anticancer Drug Screen. Data for the rad50 strain (AID 155);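 note: 0% = growth of vehicle-only cultures of the same strain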
Conditions: S. cerevisiae rad50 strain growth inhibition; at 50.0 µM; active compounds read high
Compounds without any hit were thinned out: in the full panel of roughly 79,000, 15% have a hit. Calls of active or inactive are those of the source. Rule as the data show it: active = growth inhibition above about 70%; inactive = the rest.
Assay metric: growth inhibition

Here are 8 compounds together with their reported answers.
COc1ccccc1/C=C1\NC(=S)N(/C=C2\C(=O)Oc3ccccc3C2=O)C1=O = 73.2% (active)
O=C(NCCl)Nc1ccccc1 = 57.7% (inactive)
CCCCN(CCO)CC(O)Cn1cnc2c(N)ncnc21 (stereo not given) (tested in a mixture with another compound) = 21.9% (inactive)
C=CCNC(=S)N/N=C(/c1ccccn1)C(C)C = 89.8% (active)
CC(NNC(=S)NCc1ccccc1)c1cc2ccccc2cn1 (stereo not given) = 82.2% (active)
COc1c2c(cc3c1c(=O)c1ccccc1n3C)OCO2 = 61.5% (inactive)
Brc1ccc(CCNCCN2CCCCC2)cc1 = 50.9% (inactive)
CC(C)(C)c1ccc2c(c1)C(O)(c1ccccc1)C1OC1(C(C)(C)C)C2=O (stereo not given) = 96.2% (active)

Q: Name the recorded growth inhibition for CC(=O)NC1=C(Sc2ccc([N+](=O)[O-])cc2)C(=O)c2ccccc2C1=O .
A: 61.4% (inactive)

Q: Name the recorded growth inhibition for Cc1nnc2nc3c(nn12)c1ccccc1n3C .
A: 46.3% (inactive)

Q: Name the recorded growth inhibition for C[C@@H]1CC=C[C@@H](NC(=O)OCc2ccccc2)[C@H]1C=O .
A: 13.6% (inactive)

Q: Name the recorded growth inhibition for CC(=O)Nc1ccc(/C=c2\sc3nnc(-c4cccnc4)n3c2=O)cc1 .
A: 89.8% (active)

Q: Name the recorded growth inhibition for CC1=C(C(=O)NCc2ccccc2)C(c2ccccc2O)C(C(=O)NCc2ccccc2)=C(C)N1 .
A: 87.3% (active)

Q: Name the recorded growth inhibition for C/C(=N\NC(=S)N1CCCC1)c1nc2ncccc2[nH]1 .
A: 85.9% (active)

Q: Name the recorded growth inhibition for N=C(N)Sc1ccc([N+](=O)[O-])cc1Cl .
A: 85.2% (active)

Q: Name the recorded growth inhibition for O=C(/C=C/c1cccc([N+](=O)[O-])c1)CCl .
A: 99.3% (active)
